Where do these numbers come from? They come from the supplement of paper PMC11061612.

- Test system: KYSE-450 (Esophageal Squamous Cell Carcinoma)
- assay.name: Bliss excess, mean over the matrix (fraction); higher = more synergy
Short version: Bliss excess at least 0.004 is 1, less is 0.

Recorded results for 5 compounds are shown here.
Cn1cnc2c(F)c(Nc3ccc(Br)cc3Cl)c(C(=O)NOCCO)cc21 [Selumetinib] + C=CCn1c(=O)c2cnc(Nc3ccc(N4CCN(C)CC4)cc3)nc2n1-c1cccc(C(C)(C)O)n1 [AZD1775] (first compound max 10 µM, partner max 1 µM): 0
CN(C)CCCOc1ccc(-c2ccc3ncc4c(c3c2)n(C2CCOCC2)c(=O)n4C)cn1 [AZD0156] + CCN(CCO)CCCOc1ccc2c(Nc3cc(CC(=O)Nc4cccc(F)c4)[nH]n3)ncnc2c1 [AZD2811] (first compound max 1 µM, 7x7, partner max 1 µM): 0
CN(CCO)CC[C@H](CSc1ccccc1)Nc1ccc(S(=O)(=O)NC(=O)c2ccc(N3CCC([C@@H](O)c4ccccc4-c4ccc(Cl)cc4)CC3)cc2)cc1S(=O)(=O)C(F)(F)F [AZD4320] + Cn1cnc2c(F)c(Nc3ccc(Br)cc3Cl)c(C(=O)NOCCO)cc21 [Selumetinib] (first compound max 1 µM, 7x7, partner max 3 µM): 1
CCc1c2c(nc3ccc(O)cc13)-c1cc3c(c(=O)n1C2)COC(=O)[C@]3(O)CC [SN-38] + O=C(c1cc(Cc2n[nH]c(=O)c3ccccc23)ccc1F)N1CCN(C(=O)C2CC2)CC1 [Olaparib] (first compound max 0.3 µM, 7x7, partner max 10 µM): 1
Cc1cc2ncnn2cc1Nc1ncc2c(n1)n(C1CCOCC1)c(=O)n2C [AZD7648] + C[C@@H]1COCCN1C2=NC(=NC(=C2)C3(CC3)[S@](=N)(=O)C)C4=C5C=CNC5=NC=C4 [AZD6738] (first compound max 10 µM, 7x7, partner max 10 µM): 1

Confirm if Bliss excess reported for the compound COc1cc2ncnc(Nc3ccc(F)c(Cl)c3)c2cc1OCCCN1CCOCC1 [Gefitinib] + CC(C)n1c(=O)n(C)c2cnc3cc(F)c(-c4ccc(OCCCN5CCCCC5)nc4)cc3c21 [AZD1390] (first compound max 10 µM, 7x7, partner max 0.3 µM) is 0.004 or above. 0

Test whether the compound Cc1c2c(nn1C)CSCc1cc(n(C)n1)CSc1cc(c3ccccc3c1)OCCCc1c(C(=O)O)n(C)c3c-2c(Cl)ccc13 [AZD5991] + Cn1cnc2c(F)c(Nc3ccc(Br)cc3Cl)c(C(=O)NOCCO)cc21 [Selumetinib] (first compound max 1 µM, 7x7, partner max 3 µM) records Bliss excess of 0.004 or higher. 0

----------
- System: NCI-H727 (Other Solid Carcinomas)
- assay.name: Bliss excess, mean over the matrix (fraction); higher = more synergy
Please go through the items and note down their Bliss excess.
Give bare numbers.

Would you mind giving Bliss excess for every compound in the list below?
1. O=C(c1cc(Cc2n[nH]c(=O)c3ccccc23)ccc1F)N1CCN(C(=O)C2CC2)CC1 [Olaparib] + CN(CC[C@H](CSC1=CC=CC=C1)NC2=C(C=C(C=C2)S(=O)(=O)NC(=O)C3=CC=C(C=C3)N4CCC(CC4)[C@H](C5=CC=CC=C5C6=CC=C(C=C6)Cl)O)S(=O)(=O)C(F)(F)F)CCO [AZD4320] (first compound max 10 µM, 7x7, partner max 1 µM)
2. CN(CCO)CC[C@H](CSc1ccccc1)Nc1ccc(S(=O)(=O)NC(=O)c2ccc(N3CCC([C@@H](O)c4ccccc4-c4ccc(Cl)cc4)CC3)cc2)cc1S(=O)(=O)C(F)(F)F [AZD4320] + Nc1ccn([C@@H]2O[C@H](CO)[C@@H](O)C2(F)F)c(=O)n1 [Gemcitabine] (first compound max 1 µM, 7x7, partner max 0.3 µM)

1. -0.052
2. 0.0335

----------
For each entry below, report its Bliss excess value.
- Test system: AMO-1 (Plasma Cell Myeloma)
- assay.name: Bliss excess, mean over the matrix (fraction); higher = more synergy
Numbers only.

Use these answered entries as a reference point.
Cc1nc(Nc2ncc(C(=O)Nc3c(C)cccc3Cl)s2)cc(N2CCN(CCO)CC2)n1 [Dasatinib] + CC(=O)Nc1cccc(-n2c(=O)n(C3CC3)c(=O)c3c(Nc4ccc(I)cc4F)n(C)c(=O)c(C)c32)c1 [Trametinib] (first compound max 2 µM, 7x7, partner max 1 µM): 0.058
C[C@@H](Nc1cc(F)cc(F)c1)c1cc(C(=O)N(C)C)cc2c(=O)cc(N3CCOCC3)oc12 [AZD8186] + CC(=O)c1c(C)c2cnc(Nc3ccc(N4CCNCC4)cn3)nc2n(C2CCCC2)c1=O [Palbociclib] (first compound max 10 µM, 7x7, partner max 10 µM): 0.126
CN(CCO)CC[C@H](CSc1ccccc1)Nc1ccc(S(=O)(=O)NC(=O)c2ccc(N3CCC([C@@H](O)c4ccccc4-c4ccc(Cl)cc4)CC3)cc2)cc1S(=O)(=O)C(F)(F)F [AZD4320] + C[C@@H](Nc1cc(F)cc(F)c1)c1cc(C(=O)N(C)C)cc2c(=O)cc(N3CCOCC3)oc12 [AZD8186] (first compound max 1 µM, 7x7, partner max 3 µM): 0.0318
COc1cc2c(cc1OCCCCCOc1cc3c(cc1OC)C(=O)N1C=C(C)C[C@H]1C=N3)N=C[C@@H]1CC(C)=CN1C2=O [SG3199] + O=C(c1cc(Cc2n[nH]c(=O)c3ccccc23)ccc1F)N1CCN(C(=O)C2CC2)CC1 [Olaparib] (first compound max 0.001 µM, 7x7, partner max 10 µM): -0.0342
CCN(CCO)CCCOc1ccc2c(Nc3cc(CC(=O)Nc4cccc(F)c4)[nH]n3)ncnc2c1 [AZD2811] + O=C(c1cc(Cc2n[nH]c(=O)c3ccccc23)ccc1F)N1CCN(C(=O)C2CC2)CC1 [Olaparib] (first compound max 1 µM, 7x7, partner max 10 µM): 0.0193

Tell me the measured Bliss excess of COc1cccc(OCCCN)c1-c1cc(Nc2cnc(C#N)cn2)n[nH]1 [Prexasertib] + C[C@@H]1COCCN1C2=NC(=NC(=C2)C3(CC3)[S@](=N)(=O)C)C4=C5C=CNC5=NC=C4 [AZD6738] (first compound max 1 µM, 7x7, partner max 10 µM) , please. -0.0361

----------
- Test system: D-263MG (Glioblastoma)
- assay.name: combination Emax (second highest fraction inhibited in the dose matrix, 72 h); higher = more inhibition; extreme values may be limits of the assay
Please provide measured combination Emax for the entries that follow.
Numbers only.

Example entries begin here.
CN(CCO)CC[C@H](CSc1ccccc1)Nc1ccc(S(=O)(=O)NC(=O)c2ccc(N3CCC([C@@H](O)c4ccccc4-c4ccc(Cl)cc4)CC3)cc2)cc1S(=O)(=O)C(F)(F)F [AZD4320] + Cn1cnc2c(F)c(Nc3ccc(Br)cc3Cl)c(C(=O)NOCCO)cc21 [Selumetinib] (first compound max 1 µM, 7x7, partner max 3 µM): 0.237
N#Cc1cnc(Nc2cc(NC[C@H]3CNCCO3)c(C(F)(F)F)cn2)cn1 [SRA737] + CCc1c2c(nc3ccc(O)cc13)-c1cc3c(c(=O)n1C2)COC(=O)[C@]3(O)CC [SN-38] (first compound max 10 µM, 7x7, partner max 0.3 µM): 0.823

What measured combination Emax goes with COc1cccc(OCCCN)c1-c1cc(Nc2cnc(C#N)cn2)n[nH]1 [Prexasertib] + CCc1c2c(nc3ccc(O)cc13)-c1cc3c(c(=O)n1C2)COC(=O)[C@]3(O)CC [SN-38] (first compound max 1 µM, 7x7, partner max 0.3 µM) ? 0.955

----------
- Test system: SCC-15 (Oral Cavity Carcinoma)
- assay.name: Bliss excess, mean over the matrix (fraction); higher = more synergy
Use y when the recorded Bliss excess is no lower than -0.03; use n when it is lower.

Worked set:
Cc1c2c(nn1C)CSCc1cc(n(C)n1)CSc1cc(c3ccccc3c1)OCCCc1c(C(=O)O)n(C)c3c-2c(Cl)ccc13 [AZD5991] + CCN(CCO)CCCOc1ccc2c(Nc3cc(CC(=O)Nc4cccc(F)c4)[nH]n3)ncnc2c1 [AZD2811] (first compound max 1 µM, 7x7, partner max 1 µM): y
C[C@@H](c1ccc2nccn2c1)n1nnc2ncc(-c3cnn(C)c3)nc21 [Savolitinib] + CC1(C)CCC(CN2CCN(c3ccc(C(=O)NS(=O)(=O)c4ccc(NCC5CCOCC5)c([N+](=O)[O-])c4)c(Oc4cnc5[nH]ccc5c4)c3)CC2)=C(c2ccc(Cl)cc2)C1 [Venetoclax] (first compound max 1 µM, 7x7, partner max 1 µM): n
Cc1c2c(nn1C)CSCc1cc(n(C)n1)CSc1cc(c3ccccc3c1)OCCCc1c(C(=O)O)n(C)c3c-2c(Cl)ccc13 [AZD5991] + Cc1cc2ncnn2cc1Nc1ncc2c(n1)n(C1CCOCC1)c(=O)n2C [AZD7648] (first compound max 1 µM, 7x7, partner max 10 µM): n
NC1(C(=O)N[C@@H](CCO)c2ccc(Cl)cc2)CCN(c2ncnc3[nH]ccc23)CC1 [Capivasertib] + C[C@@H]1COCCN1C2=NC(=NC(=C2)C3(CC3)[S@](=N)(=O)C)C4=C5C=CNC5=NC=C4 [AZD6738] (first compound max 10 µM, 7x7, partner max 10 µM): y

Assess whether reported Bliss excess for CC1(C)CCC(CN2CCN(c3ccc(C(=O)NS(=O)(=O)c4ccc(NCC5CCOCC5)c([N+](=O)[O-])c4)c(Oc4cnc5[nH]ccc5c4)c3)CC2)=C(c2ccc(Cl)cc2)C1 [Venetoclax] + CN(C)CCCOc1ccc(-c2ccc3ncc4c(c3c2)n(C2CCOCC2)c(=O)n4C)cn1 [AZD0156] (first compound max 1 µM, 7x7, partner max 1 µM) sits at -0.03 or higher. y
